system tested: BRD4-BD1-BD2 (Homo sapiens (Human), UniProt O60885)
assay summary: AlphaScreening assay, recombinant BRD4-BD1-BD2 and BET Ligand
Type: binding
condition set: 2.5 nM BRD4-BD1-BD2, BET Ligand
experimental readout: inhibition at 10 µM (%)

The cases that follow already have their inhibition at 10 µM on record.
>>> df
                                   molecule  experimental_readout  obs_value
0  Cc1noc(C)c1-c1ccc2[nH]c(=O)cc(NCc3ccccc3)c2c1   inhibition at 10 µM         99
1  COc1ccc(Cn2c(=O)c(-c3coc(C)n3)c(OS(=O)(=O)c3cccc4cccnc34)c3cc(Cl)ccc32)cc1 [drawing 652]   inhibition at 10 µM         98

I = Cc1noc(C)c1-c1ccc2[nH]c(=O)c(C(=O)/C=C/c3ccccc3)c(-c3cccnc3)c2c1 [drawing 644]
II = COc1ccc(Cn2c(=O)c(-c3coc(C)n3)c(OS(=O)(=O)c3ccc(C)cc3)c3cc(Cl)ccc32)cc1 [drawing 653]
Request: Which record shows the lower inhibition at 10 µM: the first, I , or the second, II ? // caller expects the label of the chosen entry
Result: I

----------
system tested: human BRD4 protein (Homo sapiens (Human), UniProt O60885)
assay summary: AlphaScreen assay, BRD4 (bromodomain 1 and 2) with histone H4 peptide
Type: binding
condition set: test compounds assayed at 10 μM or 31.6 μM for screening
Method: The interactions between test compounds and BRD4 protein containing both bromodomain 1 and bromodomain 2 were measured with human BRD4 protein with N-terminal His tag (BPS Bioscience, San Diego, Calif.) using AlphaScreen® assay at room temperature. […] Binding measurements were taken in duplicate at each concentration using EnSpire® Alpha Multimode Plate Reader Model 2390 (PerkinElmer). The AlphaScreen data were analyzed using Graphpad Prism (La Jolla, Calif.). […]
experimental readout: BRD4-BD1-BD2 % Inhibition (%)

The cases that follow already have their BRD4-BD1-BD2 % Inhibition on record.
                                   compound  unit_abbrev  obs_value
0  COc1ccc(Cn2c(=O)c(-c3coc(C)n3)c(OS(=O)(=O)c3ccc(F)cc3)c3cc(Cl)ccc32)cc1 [Compound 85]            %         99
1  COc1ccc(-c2cc(=O)[nH]c(Sc3c(-c4ccccc4)c4cc(Cl)ccc4[nH]c3=O)n2)cc1 [Compound 98]            %         64
2  CNC(=S)N1N=C(c2c(-c3ccccc3)c3cc(Cl)ccc3[nH]c2=O)CC1c1ccccc1 (stereo not drawn) [Compound 128]            %         64
3  O=C(/C=C/c1ccccc1)c1c(-c2ccccc2)c2cc(Cl)ccc2[nH]c1=O [Compound 1]            %         87
4  COc1ccc(Cn2c(=O)c(-c3coc(C)n3)c(OS(=O)(=O)c3ccc(-c4ccccc4)cc3)c3cc(Cl)ccc32)cc1 [Compound 89]            %         99
5  COc1ccc(Cn2c(=O)c(-c3coc(C)n3)c(OS(=O)(=O)c3ccccc3)c3cc(Cl)ccc32)cc1 [Compound 84]            %         98
6  COc1ccc(Cn2c(=O)c(-c3coc(C)n3)c(OS(=O)(=O)c3ccc(Cl)cc3)c3cc(Cl)ccc32)cc1 [Compound 86]            %         99
7  O=c1[nH]c2cc(Cl)ccc2c(-c2ccccc2)c1Sc1nc2ccccc2s1 [Compound 124]            %         50
8  CCN(CC)C(=S)Sc1c(-c2ccccc2)c2cc(Cl)ccc2[nH]c1=O [Compound 122]            %         65
9  O=c1[nH]c2ccc(Cl)cc2c(-c2ccccc2)c1-c1cc(-c2ccccc2)[nH]c(=S)n1 [Compound 145]            %         72

I = COc1ccc(Cn2c(=O)c(-c3coc(C)n3)c(OS(=O)(=O)c3ccc4ccccc4c3)c3cc(Cl)ccc32)cc1 [Compound 87]
II = Cc1noc(C)c1-c1ccc2[nH]c(=O)c(C(=O)/C=C/c3ccccc3)c(-c3cccnc3)c2c1 [Compound 90]
Request: Between the two listed entries I and II , which has its BRD4-BD1-BD2 % Inhibition at the higher number? // caller expects the label of the chosen entry
Result: I
(I: 99%, II: 62%)

----------
system tested: BRD4-BD1-BD2 (Homo sapiens (Human), UniProt O60885)
assay summary: AlphaScreening assay, recombinant BRD4-BD1-BD2 and BET Ligand
Type: binding
condition set: 2.5 nM BRD4-BD1-BD2, BET Ligand
experimental readout: inhibition at 10 µM (%)

The cases that follow already have their inhibition at 10 µM on record.
                                   compound  obs_value
0  COc1ccc(Cn2c(=O)c(-c3coc(C)n3)c(OS(=O)(=O)c3ccc(F)cc3)c3cc(Cl)ccc32)cc1 [drawing 654]         99
1  Cc1noc(C)c1-c1ccc2[nH]c(=O)cc(-c3ccccc3)c2c1         82

A = COc1ccc(Cn2c(=O)c(-c3coc(C)n3)c(OS(=O)(=O)c3ccc4ccccc4c3)c3cc(Cl)ccc32)cc1 [drawing 656]
B = Cc1noc(C)c1-c1ccc2[nH]c(=O)cc(O)c2c1
Request: Which record shows the lower inhibition at 10 µM: the first, A , or the second, B ? // caller expects the label of the chosen entry
Result: B
(B: 51%, A: 99%)

----------
system tested: BRD4-BD1-BD2 (Homo sapiens (Human))
assay summary: AlphaScreening assay, recombinant BRD4-BD1-BD2 and BET Ligand
Format: binding
condition set: 2.5 nM BRD4-BD1-BD2, BET Ligand
Procedure: Assays were performed by AlphaScreening technology using a recombinant BRD4-BD1-BD2 and BET Ligand. The AlphaScreening signal from the assay was correlated with the amount of BET Ligand binding to the bromodomain. […] AlphaScreening signal was measured using EnSpire Alpha 2390 Multilabel reader (Perkin Elmer). […] The AlphaScreening data were analyzed using the computer software, Graphpad Prism. […]
experimental readout: inhibition at 10 µM (%)

The cases that follow already have their inhibition at 10 µM on record.
In [3]: df
Out[3]:
                                   compound                        system_tested  experimental_readout  unit_abbrev  obs_value
0  COc1ccc(Cn2c(=O)c(-c3coc(C)n3)c(OS(=O)(=O)c3ccc(Cl)cc3)c3cc(Cl)ccc32)cc1 [drawing 655]  BRD4-BD1-BD2 (Homo sapiens (Human))   inhibition at 10 µM            %         99
1  CCN(CC)C(=O)Sc1c(-c2ccccc2)c2cc(OC)c(-c3c(C)noc3C)cc2[nH]c1=O  BRD4-BD1-BD2 (Homo sapiens (Human))   inhibition at 10 µM            %         65
2  COc1ccc(Cn2c(=O)c(-c3coc(C)n3)c(OS(=O)(=O)c3ccc(-c4ccccc4)cc3)c3cc(Cl)ccc32)cc1 [drawing 657]  BRD4-BD1-BD2 (Homo sapiens (Human))   inhibition at 10 µM            %         99
3  COc1ccc(Cn2c(=O)c(-c3coc(C)n3)c(OS(=O)(=O)c3ccccc3)c3cc(Cl)ccc32)cc1 [drawing 651]  BRD4-BD1-BD2 (Homo sapiens (Human))   inhibition at 10 µM            %         98
4  Cc1noc(C)c1-c1ccc2c(c1)c(-c1ccccc1)cc(=O)n2Cc1ccccc1  BRD4-BD1-BD2 (Homo sapiens (Human))   inhibition at 10 µM            %         74

a = Cc1noc(C)c1-c1ccc2c(-c3ccccc3)cc(=O)[nH]c2c1
b = C/C(=C\C(=O)c1c(-c2ccccc2)c2cc(Cl)ccc2[nH]c1=O)c1c(F)cccc1Cl
Request: Which record shows the lower inhibition at 10 µM: the first, a , or the second, b ? // caller expects the label of the chosen entry
Result: b

----------
System: MV4-11 acute myeloid leukemia cells
assay summary: In vitro cell viability (AlamarBlue), MV4-11
Type: cell-based
condition set: Homo sapiens, MV4-11 cells, 72-hour incubation, read-out: In Vitro Cell Viability (IC50) MV4-11 Cells (AML)
experimental readout: IC50 (µM)

The cases that follow already have their IC50 on record.
                                   molecule  obs_value
0  COc1ccccc1/C=C/C(=O)c1c(-c2ccccc2)c2cc(Cl)ccc2[nH]c1=O       1.49
1  Cc1ccccc1CNC(=O)c1c(-c2ccccc2)c2cc(Cl)ccc2[nH]c1=O       4.73

1 = Cc1nc(-c2c(N3CCCCC3)c3cc(Cl)ccc3[nH]c2=O)co1
2 = O=C(/C=C/c1ccccc1)c1c(-c2ccncc2)c2cc(Cl)ccc2[nH]c1=O
Request: Which record shows the lower IC50: the first, 1 , or the second, 2 ? // caller expects the label of the chosen entry
Result: 2
